tested on: Escherichia coli TOP10; assay: shrunken log2 fold change of peptide-encoding DNA abundance (4.5 h post-induction vs induction); higher = less antimicrobial activity (less host growth inhibition); conditions: time post-induction: 4.5 h; library: site-saturation at positions 5, 18, 19, 20
Would you mind telling me the reported shrunken log2 fold change of each entry?
Answers are plain numbers.

See these solved cases before continuing.
1) RRIRTRPPRLPRPRPRPQRSPRP : 0.309
2) RRIRNRPPRLPRPRPRPHAKPRP : -0.0658
3) RRIRARPPRLPRPRPRPYDAPRP : 0.0611

Items follow; give shrunken log2 fold change for each.
1. RRIRNRPPRLPRPRPRPQEWPRP
2. RRIRKRPPRLPRPRPRPMIPPRP
3. RRIRRRPPRLPRPRPRPSNDPRP
4. RRIRERPPRLPRPRPRPFMCPRP
5. RRIRLRPPRLPRPRPRPNYLPRP
6. RRIRTRPPRLPRPRPRPNWPPRP
7. RRIRHRPPRLPRPRPRPARGPRP

(A)
1. -0.00211
2. 0.0969
3. -0.162
4. -0.158
5. -0.377
6. -0.0423
7. 0.319

###

test system: Escherichia coli TOP10; assay: shrunken log2 fold change of peptide-encoding DNA abundance (4.5 h post-induction vs induction); higher = less antimicrobial activity (less host growth inhibition); details: time post-induction: 4.5 h; library: site-saturation at positions 5, 18, 19, 20
# label = 1.0 if shrunken log2 fold change >= -0.0008 else 0.0

1. RRIRVRPPRLPRPRPRPNTSPRP : 0.0

(Q) Exam item: decide whether the reported shrunken log2 fold change for `RRIRIRPPRLPRPRPRPHAPPRP` is at least -0.0008.
(A) 1.0

(Q) Could you do the same for `RRIRARPPRLPRPRPRPCGCPRP` , please?
(A) 1.0

(Q) Could you do the same for `RRIRRRPPRLPRPRPRPQMPPRP` , please?
(A) 1.0

(Q) Could you do the same for `RRIRPRPPRLPRPRPRPLVYPRP` , please?
(A) 0.0

(Q) Could you do the same for `RRIRWRPPRLPRPRPRPLAIPRP` , please?
(A) 1.0

(Q) Could you do the same for `RRIRERPPRLPRPRPRPHMEPRP` , please?
(A) 0.0

###

tested on: Escherichia coli TOP10; assay: shrunken log2 fold change of peptide-encoding DNA abundance (4.5 h post-induction vs induction); higher = less antimicrobial activity (less host growth inhibition); conditions: time post-induction: 4.5 h; library: site-saturation at positions 5, 18, 19, 20
# label = YES if shrunken log2 fold change >= 0.1 else NO

1) RRIRWRPPRLPRPRPRPCEGPRP : NO
2) RRIRERPPRLPRPRPRPSRRPRP : NO

Moving on to another sequence below.
(Q) Exam item: decide whether the reported shrunken log2 fold change for `RRIRYRPPRLPRPRPRPSKRPRP` is at least 0.1.
(A) NO

###

tested on: Escherichia coli TOP10; experiment: shrunken log2 fold change of peptide-encoding DNA abundance (4.5 h post-induction vs induction); higher = less antimicrobial activity (less host growth inhibition); details: time post-induction: 4.5 h; library: site-saturation at positions 5, 18, 19, 20;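 also: peptides expressed intracellularly from a pBAD plasmid library in pooled LB shake-flask culture, induced with 0.3% L-arabinose, DNA abundance read by NGS, three biological replicates, DESeq2 with apeglm shrinkage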
RECORDED ENDPOINT: shrunken log2 fold change
One number for each entry.

1) RRIRYRPPRLPRPRPRPWFTPRP : -0.165
2) RRIRMRPPRLPRPRPRPSVAPRP : 0.44
3) RRIRGRPPRLPRPRPRPWDHPRP : 0.0661
4) RRIRFRPPRLPRPRPRPTMEPRP : -0.266
5) RRIRSRPPRLPRPRPRPWCHPRP : -0.4
6) RRIRLRPPRLPRPRPRPIICPRP : 0.0147
7) RRIRPRPPRLPRPRPRPFVKPRP : -0.133
8) RRIRCRPPRLPRPRPRPDNCPRP : 0.0206
9) RRIRFRPPRLPRPRPRPVPMPRP : 0.108
10) RRIRQRPPRLPRPRPRPGPTPRP : 0.0273

Items follow; give shrunken log2 fold change for each.
1. RRIRKRPPRLPRPRPRPRFGPRP
2. RRIRSRPPRLPRPRPRPDWPPRP
3. RRIRRRPPRLPRPRPRPGDAPRP
4. RRIRWRPPRLPRPRPRPKGDPRP
5. RRIRYRPPRLPRPRPRPDAAPRP

(A)
1. 0.217
2. 0.149
3. 0.782
4. 0.0616
5. 0.294
